This listing pairs compounds with measured DC50.
Biological target: SMARCA4 (Homo sapiens, UniProt P51532)
Sequence (P51532 whole entry): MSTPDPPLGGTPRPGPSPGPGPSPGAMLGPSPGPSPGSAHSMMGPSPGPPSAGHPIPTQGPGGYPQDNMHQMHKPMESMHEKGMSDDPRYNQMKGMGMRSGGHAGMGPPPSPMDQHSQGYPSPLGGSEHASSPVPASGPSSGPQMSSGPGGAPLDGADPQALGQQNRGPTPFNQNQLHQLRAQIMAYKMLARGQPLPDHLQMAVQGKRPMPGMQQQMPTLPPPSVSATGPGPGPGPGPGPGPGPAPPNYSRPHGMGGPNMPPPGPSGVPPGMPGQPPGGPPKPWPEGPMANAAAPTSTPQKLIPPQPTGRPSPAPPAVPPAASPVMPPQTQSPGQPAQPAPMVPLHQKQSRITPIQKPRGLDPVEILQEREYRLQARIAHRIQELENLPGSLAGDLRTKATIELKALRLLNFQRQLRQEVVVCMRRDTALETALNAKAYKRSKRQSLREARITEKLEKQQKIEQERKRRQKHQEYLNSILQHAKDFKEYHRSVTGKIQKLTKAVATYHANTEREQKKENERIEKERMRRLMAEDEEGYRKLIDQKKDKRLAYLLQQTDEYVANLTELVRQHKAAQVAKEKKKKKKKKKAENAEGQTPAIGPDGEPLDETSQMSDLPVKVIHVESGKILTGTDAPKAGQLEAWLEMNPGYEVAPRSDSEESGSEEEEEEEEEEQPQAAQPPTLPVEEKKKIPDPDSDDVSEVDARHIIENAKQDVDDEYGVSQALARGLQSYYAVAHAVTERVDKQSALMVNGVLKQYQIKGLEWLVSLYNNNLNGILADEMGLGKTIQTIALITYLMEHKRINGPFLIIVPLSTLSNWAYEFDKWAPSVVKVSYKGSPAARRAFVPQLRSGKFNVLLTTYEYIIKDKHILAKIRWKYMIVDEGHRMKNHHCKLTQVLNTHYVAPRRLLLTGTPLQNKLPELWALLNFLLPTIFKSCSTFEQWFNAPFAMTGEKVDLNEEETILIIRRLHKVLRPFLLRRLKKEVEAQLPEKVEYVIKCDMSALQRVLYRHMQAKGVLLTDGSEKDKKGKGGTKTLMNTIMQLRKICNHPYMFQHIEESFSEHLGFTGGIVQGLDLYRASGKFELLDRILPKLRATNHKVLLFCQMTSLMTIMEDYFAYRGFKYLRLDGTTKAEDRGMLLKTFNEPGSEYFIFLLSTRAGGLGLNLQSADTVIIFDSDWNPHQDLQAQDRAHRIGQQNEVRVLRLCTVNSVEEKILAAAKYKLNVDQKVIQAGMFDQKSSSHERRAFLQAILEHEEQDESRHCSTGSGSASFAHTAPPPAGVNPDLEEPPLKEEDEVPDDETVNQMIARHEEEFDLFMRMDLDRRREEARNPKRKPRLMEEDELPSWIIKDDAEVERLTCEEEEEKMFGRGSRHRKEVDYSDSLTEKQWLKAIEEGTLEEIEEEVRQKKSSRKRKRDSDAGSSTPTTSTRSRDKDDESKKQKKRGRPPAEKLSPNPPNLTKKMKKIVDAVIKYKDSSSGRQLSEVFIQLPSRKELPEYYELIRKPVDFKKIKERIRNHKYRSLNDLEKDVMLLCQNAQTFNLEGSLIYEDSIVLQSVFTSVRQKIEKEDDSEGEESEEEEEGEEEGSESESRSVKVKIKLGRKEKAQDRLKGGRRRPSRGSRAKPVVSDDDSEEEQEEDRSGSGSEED
Assay: HiBit assay in engineered HT1080 CRISPR knock-in cell, 6 hrs (B series), SMARCA4
Type: cell-based
Conditions: HT1080 CRISPR knock-in cells, 6 hrs incubation; read-out: SMARC A4 HT1080 HiBit DC50
Experimental: The HiBit assay was performed using engineered HT1080 CRISPR knock-in cell utilizing the Nano-Glo HiBiT Lytic Detection System from Promega, Cat #N3040. Compounds were transferred, 25 nL DMSO or test compounds (final DMSO @ 0.1%) to intermediate plates (Corning3570) using ECHO550. […] After briefly centrifugation (2000 rpm 1 mins), plate was read on Envision (Ultrasensitive luminescence model).

{"compound": "Cc1ncsc1-c1ccc([C@H](C)NC(=O)[C@@H]2C[C@@H](O)CN2C(=O)[C@H](c2cc(N3CCC(C(=O)N4CCC(c5ccc6c(c5)C(C)(C)c5nc(=O)c7c(Cl)cccc7n5-6)CC4)CC3)no2)C(C)C)cc1", "study-system": "SMARCA4 (Homo sapiens, UniProt P51532)", "DC50": "100 to 500 nM"}
{"compound": "CC(C)C(C(=O)N1C[C@H](O)C[C@H]1C(=O)N[C@@H](C)c1ccc(-c2ncnn2C)cc1)c1cc(OCCN2CCC(c3ccc4c(c3)C(C)(C)c3nc(=O)c5c(Cl)cccc5n3-4)CC2)no1 (some centres unmarked) [Compound B75]", "study-system": "SMARCA4 (Homo sapiens, UniProt P51532)", "DC50": "100 to 500 nM"}
